System: U251 CNS
Pick one: active, inactive

CCCCCCCCCCCCCCCCCC1=NCCN1CS(=O)(=O)O	inactive
CCOc1ccc([C@@H]2[C@@H](Oc3ccccc3)C(=O)N2c2cc(OC)c(OC)c(OC)c2)cc1	active
COc1ccc(NC(=O)n2nc(N)c3ccccc32)cc1OC	inactive
O=[N+]([O-])c1ccc(-c2nc(-c3ccccc3)c(-c3ccccc3)n2-c2ccccc2)cc1	inactive
Cc1nc2sccn2c(=O)c1CCN1CCC(=C(c2ccc(F)cc2)c2ccc(F)cc2)CC1	inactive
COc1cc(C(=O)/C=C/c2cc(C(=O)c3cc(OC)c(OC)c(OC)c3)ccc2OC)ccc1N	inactive

Q: State the result this test recorded for Cc1cc2cc3cc(C)c(N(C)C)cc3nc2cc1N(C)C .
A: inactive

Q: State the result this test recorded for COc1cc(NCCCCN=C(N)NC(N)=NC(C)C)c2ncccc2c1 .
A: inactive

Q: State the result this test recorded for CS(=O)CCCCCN=C=S (configuration not stated) .
A: inactive

Q: State the result this test recorded for N#Cc1c(-c2ccc(Cl)cc2)n(O)c2ccccc12 .
A: inactive

Q: State the result this test recorded for COc1ccc(-c2ccc(/C=N/n3c(COc4ccccc4Cl)nn(CN4CCN(C)CC4)c3=S)o2)c([N+](=O)[O-])c1 .
A: inactive

Q: State the result this test recorded for CC(=O)Nc1ccc(Sc2ccc([N+](=O)[O-])o2)cc1 .
A: inactive
